Each recorded value in this set is attributed to patent US20120238488A1.

What GI50 was measured for each of the following?
# Tested on: HCT116 (Colon)
Form entry: value (nM) — number only.

Assay HCT116 (Colon), sample C[C@]12CCC(=NOCCN)C=C1CCC1C2CC[C@]2(C)C(=O)CCC12 (stereo partly drawn) [Compound 12] , GI50 read: 4060

Assay HCT116 (Colon), sample C[C@]12CCC(=NOC3CCNC3)CC1CCC1C2CC[C@]2(C)C(=O)CCC12 (stereo partly drawn) [Compound 56] , GI50 read: 5.8

Assay HCT116 (Colon), sample C[C@]12CCC(=NOCCN)CC1CCC1C2CC[C@]2(C)C(=O)CCC12 (stereo partly drawn) [Compound 1] , GI50 read: 364

====

# System: SKMEL28 (Melanoma)
# test details: SRB assay, SKMEL28
# Format: cell-based, human
# experimental context: SKMEL28, SRB, 48 h
reported property: TGI (µM)
Form entry: value (µM) — number only.

What the record says about C[C@]12CCC(=NOCCN)CC1CCC1C2CC[C@]2(C)C(=O)CCC12 (stereo partly shown) : TGI is 0.9284

What the record says about C[C@]12CCC(=NOCCN)C=C1CCC1C2CC[C@@]2(C)C1CC[C@@H]2O (stereo partly shown) : TGI is 49.74

What the record says about C[C@]12CCC(=NOCCN)C=C1CCC1C2CC[C@]2(C)C(=O)CCC12 (stereo partly shown) : TGI is 40.16

What the record says about C[C@]12CCC(=NOC3CCNC3)CC1CCC1C2CC[C@]2(C)C(=O)CCC12 (stereo partly shown) : TGI is 0.2253

====

# Tested on: SKMEL28 (Melanoma)
What GI50 was measured for each of the following?
For clarity, give the value followed by its unit.

What the record says about C[C@]12CCC(=NOC3CCNC3)CC1CCC1C2CC[C@]2(C)C(=O)CCC12 (stereo partly drawn) : GI50 is 40.9 nM

What the record says about C[C@H]1O[C@@H](O[C@H]2[C@@H](O)C[C@H](O[C@H]3[C@@H](O)C[C@H](O[C@H]4CC[C@@]5(C)[C@H](CC[C@@H]6[C@@H]5C[C@@H](O)[C@]5(C)[C@@H](C7=CC(=O)OC7)CC[C@]65O)C4)O[C@@H]3C)O[C@@H]2C)C[C@H](O)[C@@H]1O [Digoxin, reference compound] : GI50 is 80 nM

What the record says about C[C@]12CCC(=NOCCN)CC1CCC1C2CC[C@]2(C)C(=O)CCC12 (stereo partly drawn) : GI50 is 517 nM

====

# Test system: SKMEL28 (Melanoma)
# test details: SRB assay, SKMEL28
# Type: cell-based, human
# experimental context: SKMEL28, SRB, 48 h
# Procedure: SRB assays were performed according to standard National Cancer Institute Guidelines. […] Following drug addition, each culture was incubated for forty-eight hours. […] After staining, the bound stain was solubilized and the absorbance was read on an automated plate reader at a wavelength of 515 nm. […] Three dose response parameters were calculated for each experimental agent. […] The drug concentration resulting in total growth inhibition (TGI) was calculated from Ti=Tz. […]
What TGI was measured for each of the following?
Form entry: value (µM) — number only.

What the record says about C[C@H]1O[C@@H](O[C@H]2[C@@H](O)C[C@H](O[C@H]3[C@@H](O)C[C@H](O[C@H]4CC[C@@]5(C)[C@H](CC[C@@H]6[C@@H]5C[C@@H](O)[C@]5(C)[C@@H](C7=CC(=O)OC7)CC[C@]65O)C4)O[C@@H]3C)O[C@@H]2C)C[C@H](O)[C@@H]1O [Digoxin, reference compound] : TGI is 6.50

What the record says about C[C@]12CCC(=NOC3CCNC3)C=C1CCC1C2CC[C@]2(C)C(=O)CCC12 (stereo partly drawn) : TGI is 6.6230
